B1: Homeobox protein SIX6, residues 134 to 184; numbered along this chain, O95475 (parent)
chain: CFKERTRHLLREWYLQDPYPNPSKKRELAQATGLTPTQVGNWFKNRRQRDR

variants of: B1; assay: abundance fitness (aPCA) (normalised: wild type 0, dead -1); higher = more abundant; growth selection in yeast, the domain comes from the species named; settings: Homo sapiens
Quick rule for you: abundance fitness at -0.4 or higher means label 1, lower means label 0.

- alteration: "A31V"
  classification: "label 1"
- alteration: "R47V"
  classification: "label 0"
- alteration: "E27N"
  classification: "label 0"
- alteration: "R46A"
  classification: "label 1"
- alteration: "Q30A"
  classification: "label 1"
- alteration: "A29H"
  classification: "label 0"
- alteration: "R46I"
  classification: "label 0"
- alteration: "P20H"
  classification: "label 0"
- alteration: "G33M"
  classification: "label 0"
- alteration: "K25Q"
  classification: "label 1"
- alteration: "P36L"
  classification: "label 1"
- alteration: "D50W"
  classification: "label 0"
